# system_under_test: MELK (human) (UniProt Q14680)
# Sequence (Q14680 whole entry, looked up): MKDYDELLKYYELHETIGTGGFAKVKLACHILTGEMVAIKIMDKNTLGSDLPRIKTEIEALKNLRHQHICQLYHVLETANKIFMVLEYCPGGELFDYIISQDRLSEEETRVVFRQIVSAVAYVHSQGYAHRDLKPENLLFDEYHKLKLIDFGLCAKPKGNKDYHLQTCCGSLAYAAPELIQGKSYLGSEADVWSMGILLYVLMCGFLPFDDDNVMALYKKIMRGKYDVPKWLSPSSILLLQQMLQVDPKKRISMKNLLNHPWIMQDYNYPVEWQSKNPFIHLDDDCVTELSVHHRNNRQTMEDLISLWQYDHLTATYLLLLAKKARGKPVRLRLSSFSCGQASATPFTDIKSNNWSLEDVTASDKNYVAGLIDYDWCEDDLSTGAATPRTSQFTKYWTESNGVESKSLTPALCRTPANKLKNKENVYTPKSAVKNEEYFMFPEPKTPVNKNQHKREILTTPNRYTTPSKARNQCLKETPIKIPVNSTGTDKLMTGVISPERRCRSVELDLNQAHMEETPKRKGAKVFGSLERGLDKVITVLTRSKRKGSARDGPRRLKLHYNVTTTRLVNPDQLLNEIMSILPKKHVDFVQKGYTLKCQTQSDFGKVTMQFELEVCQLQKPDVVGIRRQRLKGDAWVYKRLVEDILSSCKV
# method_summary: radiometric filter-binding kinase assay, Kinase HotSpot
# condition_parameters: compound 0.5 µM; ATP 10 µM
reported_property: residual activity (%)

>>> df
                                   molecule  reported_property  result_value
0         O=C(O)/C=C/c1cc(Br)c(Br)c(Br)c1Br  residual activity            91
1           Cc1nc2cc3nc(-c4cccs4)cnc3cc2n1C  residual activity          95.6
2  CC(C)[C@H](CO)Nc1nc(Nc2cc(N)cc(Cl)c2)c2ncn(C(C)C)c2n1  residual activity          51.5

Recorded values, source the kinase profiling compilation of Christmann-Franck et al. (2016).
